Target: J2 IgG heavy chain (HC-TEV-His8) Y54F;J2 IgG light chain (Mus musculus;Mus musculus, UniProt ; ;, Y54F|)
Sequence (chain, as listed by the source Y54F| | Y54F Y54F, chain 1 of 2): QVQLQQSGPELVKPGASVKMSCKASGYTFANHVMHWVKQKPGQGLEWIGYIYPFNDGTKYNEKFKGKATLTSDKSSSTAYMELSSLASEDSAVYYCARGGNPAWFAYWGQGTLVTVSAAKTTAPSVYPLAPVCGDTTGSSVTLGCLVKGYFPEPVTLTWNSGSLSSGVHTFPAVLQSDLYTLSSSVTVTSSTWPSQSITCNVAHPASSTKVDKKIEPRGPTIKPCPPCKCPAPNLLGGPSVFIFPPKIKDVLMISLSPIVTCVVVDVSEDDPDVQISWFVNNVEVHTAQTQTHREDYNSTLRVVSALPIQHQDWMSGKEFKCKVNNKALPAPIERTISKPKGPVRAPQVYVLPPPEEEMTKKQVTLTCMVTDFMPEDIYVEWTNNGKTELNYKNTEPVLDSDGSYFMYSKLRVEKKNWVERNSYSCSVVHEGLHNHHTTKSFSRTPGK
Sequence (chain, as listed by the source Y54F| | Y54F Y54F, chain 2 of 2): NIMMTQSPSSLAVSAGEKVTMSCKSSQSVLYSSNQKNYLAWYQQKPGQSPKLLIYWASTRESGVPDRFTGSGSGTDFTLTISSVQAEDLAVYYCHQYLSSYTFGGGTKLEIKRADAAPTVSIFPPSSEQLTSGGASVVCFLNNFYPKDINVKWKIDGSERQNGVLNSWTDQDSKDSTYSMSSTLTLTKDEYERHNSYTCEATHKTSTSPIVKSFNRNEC
Assay: BLI; 100 mM KCl; BLI: 25 mM Tris-HCl pH 7.5, 2 mM MgCl2, KCl 100 mM (6-20 bp and mutants), 200 mM (30 bp) or 400 mM (40, 50 bp), 25 C; IgG immobilised on Protein A probes
Settings: protein: recombinant;recombinant; tags: His8 (C-term);; chain copies: 2;2; blunt
assay metric: Kd (nM)
Answer with a number only, understood to be in nM.

For the binder shown here, 20-bp dsRNA (dsRNA) RNA 1: GUUGUAAAGAAGGUCAAUAU RNA 2: AUAUUGACCUUCUUUACAAC , give the reported Kd. 710
